# Test system: 958767-090-R-J1-PDC spheroid growth;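 note: spheroids exposed to agents for 7 days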
# TEST METHOD NOTES: Anticancer human tumor 958767-090-R-J1-PDC patient-derived head and neck squamous carcinoma cell line growth inhibition [IpAb]
# MEASUREMENT SETUP: curve of first compound; second compound 0.316 µM; spheroids with HUVEC and MSC
MEASURED PROPERTY: pIC50
Scale: negative log10 of molar concentration, which is what pIC50 denotes.

Consider the worked cases shown below.
MOLECULE	pIC50
Cn1ncc(Cl)c1-c1cc(C(=O)NC(CN)Cc2cccc(F)c2)sc1Cl (stereo unspecified) + CC(C)NCC(C(=O)N1CCN(c2ncnc3c2C(C)CC3O)CC1)c1ccc(Cl)cc1	6.02
CC(=O)c1c(C)c2cnc(Nc3ccc(N4CCNCC4)cn3)nc2n(C2CCCC2)c1=O + CCN1CCN(Cc2ccc(Nc3ncc(F)c(-c4cc(F)c5nc(C)n(C(C)C)c5c4)n3)nc2)CC1	6.58
CC(C)n1nc(-c2ccc3oc(N)nc3c2)c2c(N)ncnc21 + CC(C)NCC(C(=O)N1CCN(c2ncnc3c2C(C)CC3O)CC1)c1ccc(Cl)cc1	8.74
C=CC(=O)N1CCN(c2nc(=O)n(-c3c(C)ccnc3C(C)C)c3nc(-c4c(O)cccc4F)c(F)cc23)C(C)C1 (stereo unspecified) + CC(C)NCC(C(=O)N1CCN(c2ncnc3c2C(C)CC3O)CC1)c1ccc(Cl)cc1	5.73
CC(C)(C)c1cnc(CSc2cnc(NC(=O)C3CCNCC3)s2)o1 + CC(C)NCC(C(=O)N1CCN(c2ncnc3c2C(C)CC3O)CC1)c1ccc(Cl)cc1	6.94
C=CCn1c(=O)c2cnc(Nc3ccc(N4CCN(C)CC4)cc3)nc2n1-c1cccc(C(C)(C)O)n1 + CCN1CCN(Cc2ccc(Nc3ncc(F)c(-c4cc(F)c5nc(C)n(C(C)C)c5c4)n3)nc2)CC1	6.69
Cn1ncc(Cl)c1-c1cc(C(=O)NC(CN)Cc2cccc(F)c2)sc1Cl (stereo unspecified) + CCN1CCN(Cc2ccc(Nc3ncc(F)c(-c4cc(F)c5nc(C)n(C(C)C)c5c4)n3)nc2)CC1	5.97
Cc1nc(NC(=O)N2CCCC2C(N)=O)sc1-c1ccnc(C(C)(C)C(F)(F)F)c1 (stereo unspecified) + CC(C)NCC(C(=O)N1CCN(c2ncnc3c2C(C)CC3O)CC1)c1ccc(Cl)cc1	7.20

Shift focus to the following entry.
(Q) Please report the recorded pIC50 for CC(=O)c1c(C)c2cnc(Nc3ccc(N4CCNCC4)cn3)nc2n(C2CCCC2)c1=O + CC(C)NCC(C(=O)N1CCN(c2ncnc3c2C(C)CC3O)CC1)c1ccc(Cl)cc1 .
(A) 6.52
